System: DU-145 prostate
Experiment: NCI tumour cell line growth inhibition, 48 h
assay-readout: GI50

{"compound": "C1=C/COCc2cc(ccc2OCCN2CCCC2)Nc2nccc(n2)-c2ccc(o2)COC/1", "reported-measurement": "1570 nM"}
{"compound": "CN(C)CCNC(=O)c1ccc(-c2nc3ccc4[nH]ncc4c3c3c2C2CCC3C2)cc1 (centres undefined)", "reported-measurement": "965 nM"}
{"compound": "CCCCCCCC(=O)OCCCC1[C@]2(C)CC[C@@]3(C)C([C@H](C)CCC=C(C)C)CC[C@]3(C)C2CC[C@]12OC2(C)C (some centres undefined)", "reported-measurement": "38100 nM"}
{"compound": "COC(=O)c1cc2c(cc1Cl)SC1=NN(C)S(=O)N1S2(=O)=O (centres undefined)", "reported-measurement": "> 100000 nM"}
{"compound": "C=C1C(=O)O[C@H]2[C@H]1CC/C(COC(=O)NCc1ccc(OC)cc1)=C\\CC[C@@]1(C)O[C@@H]21", "reported-measurement": "726 nM"}
{"compound": "Cc1cc(C)c2c(n1)sc1c(N)ncnc12", "reported-measurement": "> 25000 nM"}
{"compound": "O=S1(=O)N(Cc2ccccc2)[C@@H](Cc2ccccc2)[C@H](O)[C@H](O)[C@H](Cc2ccccc2)N1Cc1ccccc1", "reported-measurement": "3210 nM"}
{"compound": "CCC(C)Oc1nc2c(c(=O)n(C)c(=O)n2C)n1C (centres undefined)", "reported-measurement": "> 100000 nM"}
{"compound": "CN1CCN(Cc2ccc(NC(=O)c3cncc(C#Cc4cnc(N)cc4C#N)c3)cc2C(F)(F)F)CC1", "reported-measurement": "3250 nM"}
{"compound": "CC[C@@]1(OC(=O)CN)C(=O)OCc2c1cc1n(c2=O)Cc2c-1nc1cc3c(cc1c2CCl)OCO3", "reported-measurement": "< 10 nM"}
{"compound": "Cc1ccc2nc(-c3ccc(OCC(=O)N=Nc4c(O)[nH]c5ccccc45)cc3)[nH]c2c1", "reported-measurement": "3290 nM"}
{"compound": "C#CCNC(=S)N/N=C(\\C)c1ccccn1", "reported-measurement": "404 nM"}
{"compound": "C=C/C(C)=C/C[C@]1(C)[C@H](C)[C@@H](OC(=O)CCC)[C@H](O)[C@@]23C(=C[C@H](OC)C[C@@H]12)[C@@H](OC(=O)CCC)O[C@H]3OC(C)=O", "reported-measurement": "1530 nM"}
{"compound": "COC(=O)C12CC(NC(=O)c3csc([C@@H](C[C@H](C(C)C)N(C)C(=O)[C@@H](NC(=O)[C@H]4CCCCN4C)C4CC4)OC(C)=O)n3)(C1)C2", "reported-measurement": "15.4 nM"}

* * *

Tested on: UO-31 renal
Assay: NCI tumour cell line growth inhibition, 48 h

{"molecule": "O=C1CC(C(CC(=O)c2ccccc2)c2ccccc2)C(=O)c2ccccc2N1 (centres undefined)", "experimental-target": "UO-31 renal", "TGI": "40.4 µM"}
{"molecule": "COC(=O)c1c(CC(Cc2ccc3c(c2)CCCC3)C(=O)OC)ccc2c1CCCC2 (centres undefined)", "experimental-target": "UO-31 renal", "TGI": "> 100 µM"}
{"molecule": "Cc1cc(Cl)ccc1OCC(=O)Nc1nc(N)nc(N)n1", "experimental-target": "UO-31 renal", "TGI": "> 100 µM"}
{"molecule": "CCCCCCCCCC(=O)N[C@@H](c1ccco1)[C@@H](O)C(=O)O[C@H]1C[C@@]2(O)[C@@H](OC(=O)c3ccccc3)[C@@H]3[C@]4(OC(C)=O)CO[C@@H]4C[C@H](O)[C@@]3(C)C(=O)[C@H](OC(C)=O)C(=C1C)C2(C)C", "experimental-target": "UO-31 renal", "TGI": "12.7 µM"}
